Just for reference, ChEMBL document CHEMBL5303304 is where these values come from.

Listed here: items and their measured Growth Rate.
# Test system: U2OS
# Protocol: Incucyte cell viability with U2OS; further: unitless GR value; below 1 slowed growth and below 0 cell loss
# Assay type: toxicity, cell-based
# Assay Setup: human, 0 h, 10 µM, compound concentration 10 uM, replicate number 1
Value Type: Growth Rate

molecule="CCN1CCN(Cc2ccc(Nc3ncc(F)c(-c4cc(F)c5nc(C)n(C(C)C)c5c4)n3)nc2)CC1 [ABEMACICLIB]" value_type="Growth Rate" measured=-0.95
molecule=COCCN(C)c1ccc(NC(=O)/C=C(\C)c2ccc3ccccc3c2)c(C(=O)O)c1 value_type="Growth Rate" measured=0.79
molecule="O=C(O)CCC/C=C\\C[C@@H]1[C@@H](/C=C/[C@@H](O)COc2cccc(C(F)(F)F)c2)[C@H](O)C[C@@H]1O [FLUPROSTENOL]" value_type="Growth Rate" measured=0.61
